Origin of measurements: the supplement of paper PMC9112550

Recorded shrunken log2 fold change values for a group of sequences are listed next.
# Tested on: Escherichia coli TOP10
# MEASUREMENT_NOTES: shrunken log2 fold change of peptide-encoding DNA abundance (4.5 h post-induction vs induction); higher = less antimicrobial activity (less host growth inhibition)
# MEASUREMENT_SETUP: time post-induction: 4.5 h; library: site-saturation at positions 5, 18, 19, 20
MEASURED_PARAMETER: shrunken log2 fold change

SEQ_STRING | MEASURED_PARAMETER | RECORDED_RESULT
RRIRTRPPRLPRPRPRPENGPRP | shrunken log2 fold change | 0.0885
RRIRDRPPRLPRPRPRPFCAPRP | shrunken log2 fold change | 0.652
RRIRDRPPRLPRPRPRPQRWPRP | shrunken log2 fold change | 0.287
RRIRYRPPRLPRPRPRPCWYPRP | shrunken log2 fold change | -1.03
RRIRFRPPRLPRPRPRPQYGPRP | shrunken log2 fold change | -0.0328
RRIRLRPPRLPRPRPRPYKFPRP | shrunken log2 fold change | -0.447
RRIRMRPPRLPRPRPRPEFPPRP | shrunken log2 fold change | 0.745
RRIRWRPPRLPRPRPRPDGMPRP | shrunken log2 fold change | 0.0134
RRIRMRPPRLPRPRPRPWGNPRP | shrunken log2 fold change | -0.00136
RRIRHRPPRLPRPRPRPWWGPRP | shrunken log2 fold change | -0.0666
RRIRFRPPRLPRPRPRPCGGPRP | shrunken log2 fold change | 0.12
RRIRIRPPRLPRPRPRPSWQPRP | shrunken log2 fold change | 0.144

* * *

# Test system: Escherichia coli TOP10
# MEASUREMENT_NOTES: shrunken log2 fold change of peptide-encoding DNA abundance (4.5 h post-induction vs induction); higher = less antimicrobial activity (less host growth inhibition)
# MEASUREMENT_SETUP: time post-induction: 4.5 h; library: site-saturation at positions 5, 18, 19, 20
MEASURED_PARAMETER: shrunken log2 fold change

SEQ_STRING | RECORDED_RESULT
RRIRPRPPRLPRPRPRPEKQPRP | -0.0353
RRIRRRPPRLPRPRPRPMQPPRP | 0.0874
RRIRLRPPRLPRPRPRPQEHPRP | -0.167
RRIRVRPPRLPRPRPRPSQSPRP | -0.146
RRIRCRPPRLPRPRPRPPTIPRP | -0.158
RRIRERPPRLPRPRPRPWPEPRP | -0.0215
RRIRTRPPRLPRPRPRPWNPPRP | 0.0296
RRIRIRPPRLPRPRPRPHAFPRP | -0.0152
RRIRTRPPRLPRPRPRPGKAPRP | -0.0369
RRIRLRPPRLPRPRPRPCMPPRP | -0.579
RRIRTRPPRLPRPRPRPEMAPRP | 0.484
RRIRCRPPRLPRPRPRPQCNPRP | -0.5
RRIRFRPPRLPRPRPRPFVLPRP | -0.532
RRIRWRPPRLPRPRPRPLAEPRP | 1.13
RRIRKRPPRLPRPRPRPFASPRP | 0.193
RRIRKRPPRLPRPRPRPMCSPRP | -0.0421
RRIRRRPPRLPRPRPRPKWAPRP | 0.0296
RRIRLRPPRLPRPRPRPCPDPRP | -0.136
RRIRCRPPRLPRPRPRPYNTPRP | -0.91
RRIRHRPPRLPRPRPRPEQIPRP | 0.0219
RRIRQRPPRLPRPRPRPMRKPRP | 0.0266
RRIRHRPPRLPRPRPRPNGLPRP | -0.57
RRIRCRPPRLPRPRPRPKMEPRP | -0.204
RRIRMRPPRLPRPRPRPVCIPRP | -0.0455
RRIRERPPRLPRPRPRPSLTPRP | -0.699
RRIRGRPPRLPRPRPRPYTLPRP | -0.616

* * *

# Tested on: Escherichia coli TOP10
# MEASUREMENT_NOTES: shrunken log2 fold change of peptide-encoding DNA abundance (4.5 h post-induction vs induction); higher = less antimicrobial activity (less host growth inhibition)
# MEASUREMENT_SETUP: time post-induction: 4.5 h; library: site-saturation at positions 5, 18, 19, 20
Class (by shrunken log2 fold change) -- range 1 (below 0.03), range 2 (0.03 to below 0.2), range 3 (0.2 or more)

SEQ_STRING | LABEL
RRIRKRPPRLPRPRPRPSIFPRP | range 1
RRIRLRPPRLPRPRPRPIFHPRP | range 1
RRIRTRPPRLPRPRPRPTASPRP | range 2
RRIRPRPPRLPRPRPRPFLWPRP | range 1
RRIRRRPPRLPRPRPRPNDSPRP | range 1
RRIRVRPPRLPRPRPRPAVVPRP | range 3
RRIRGRPPRLPRPRPRPDGDPRP | range 3
RRIRPRPPRLPRPRPRPPECPRP | range 3
RRIRNRPPRLPRPRPRPGPGPRP | range 3
RRIRGRPPRLPRPRPRPTGAPRP | range 3
RRIRVRPPRLPRPRPRPPVHPRP | range 1
RRIRFRPPRLPRPRPRPPICPRP | range 2

* * *

# Tested on: Escherichia coli TOP10
# MEASUREMENT_NOTES: shrunken log2 fold change of peptide-encoding DNA abundance (4.5 h post-induction vs induction); higher = less antimicrobial activity (less host growth inhibition)
# MEASUREMENT_SETUP: time post-induction: 4.5 h; library: site-saturation at positions 5, 18, 19, 20
Param threshold (-0.2) applies to shrunken log2 fold change; output YES when value >= threshold, NO when value < threshold.

SEQ_STRING | SYSTEM_TESTED | LABEL
RRIRKRPPRLPRPRPRPNWAPRP | Escherichia coli TOP10 | YES
RRIRHRPPRLPRPRPRPAPMPRP | Escherichia coli TOP10 | YES
RRIRTRPPRLPRPRPRPGKCPRP | Escherichia coli TOP10 | YES
RRIRHRPPRLPRPRPRPISQPRP | Escherichia coli TOP10 | YES
RRIRRRPPRLPRPRPRPMGKPRP | Escherichia coli TOP10 | YES
RRIRPRPPRLPRPRPRPVDQPRP | Escherichia coli TOP10 | NO
RRIRERPPRLPRPRPRPVFEPRP | Escherichia coli TOP10 | YES
RRIRNRPPRLPRPRPRPYPYPRP | Escherichia coli TOP10 | NO
RRIRTRPPRLPRPRPRPAKFPRP | Escherichia coli TOP10 | YES
RRIRARPPRLPRPRPRPFLNPRP | Escherichia coli TOP10 | NO
RRIRNRPPRLPRPRPRPHSPPRP | Escherichia coli TOP10 | NO
RRIRFRPPRLPRPRPRPTYEPRP | Escherichia coli TOP10 | NO
RRIRRRPPRLPRPRPRPLIMPRP | Escherichia coli TOP10 | NO

* * *

Recorded shrunken log2 fold change values for a group of sequences are listed next.
# System: Escherichia coli TOP10;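 also: peptides expressed intracellularly from a pBAD plasmid library in pooled LB shake-flask culture, induced with 0.3% L-arabinose, DNA abundance read by NGS, three biological replicates, DESeq2 with apeglm shrinkage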
# MEASUREMENT_NOTES: shrunken log2 fold change of peptide-encoding DNA abundance (4.5 h post-induction vs induction); higher = less antimicrobial activity (less host growth inhibition)
# MEASUREMENT_SETUP: time post-induction: 4.5 h; library: site-saturation at positions 5, 18, 19, 20

SEQ_STRING | shrunken log2 fold change
RRIRKRPPRLPRPRPRPTLMPRP | 0.758
RRIRERPPRLPRPRPRPSPRPRP | 0.265
RRIRFRPPRLPRPRPRPTTTPRP | 0.212
RRIRKRPPRLPRPRPRPQFSPRP | 0.0164
RRIRDRPPRLPRPRPRPDVIPRP | 0.00273
RRIRGRPPRLPRPRPRPNNLPRP | -0.349
RRIRMRPPRLPRPRPRPNFSPRP | 0.0634
RRIRTRPPRLPRPRPRPYQPPRP | -0.0681
RRIRNRPPRLPRPRPRPLWDPRP | -0.00945
RRIRHRPPRLPRPRPRPGFLPRP | -0.0294
RRIRHRPPRLPRPRPRPPRQPRP | 0.108
RRIRLRPPRLPRPRPRPSSRPRP | -0.425
RRIRWRPPRLPRPRPRPTPIPRP | 0.419
RRIRWRPPRLPRPRPRPPWQPRP | 0.289
RRIRLRPPRLPRPRPRPEKNPRP | 0.0916
RRIRLRPPRLPRPRPRPNDVPRP | -0.111
RRIRDRPPRLPRPRPRPPKKPRP | 0.0806
RRIRSRPPRLPRPRPRPFKLPRP | -0.71
RRIRSRPPRLPRPRPRPQKDPRP | -0.323
RRIRERPPRLPRPRPRPNWHPRP | -0.185
RRIRFRPPRLPRPRPRPFHKPRP | -1.02
RRIRPRPPRLPRPRPRPAMEPRP | 0.226
RRIRKRPPRLPRPRPRPQVRPRP | -0.117
RRIRPRPPRLPRPRPRPYMMPRP | -0.309
RRIRYRPPRLPRPRPRPCGDPRP | -0.0424
RRIRHRPPRLPRPRPRPSEPPRP | -0.206
RRIRNRPPRLPRPRPRPWGIPRP | -0.199
RRIRDRPPRLPRPRPRPCNYPRP | -0.475
RRIRIRPPRLPRPRPRPWQTPRP | 0.0238
RRIRPRPPRLPRPRPRPVFHPRP | -0.178
RRIRKRPPRLPRPRPRPVIKPRP | 0.0845
RRIRMRPPRLPRPRPRPERQPRP | 2.84
RRIRQRPPRLPRPRPRPPMVPRP | -0.0885
RRIRRRPPRLPRPRPRPVSIPRP | -0.0599
RRIRTRPPRLPRPRPRPRSLPRP | 0.19
RRIRWRPPRLPRPRPRPVNFPRP | 0.0606
RRIRSRPPRLPRPRPRPYYVPRP | -0.274
RRIRHRPPRLPRPRPRPDMKPRP | -0.0644
RRIRMRPPRLPRPRPRPKDAPRP | 2.02
RRIRQRPPRLPRPRPRPRHRPRP | 0.16
RRIRYRPPRLPRPRPRPQTSPRP | -1.22
RRIRLRPPRLPRPRPRPSTHPRP | -0.59
RRIRNRPPRLPRPRPRPQGQPRP | 0.225
RRIRCRPPRLPRPRPRPMDDPRP | -0.194
RRIRHRPPRLPRPRPRPSGQPRP | -0.17
RRIRKRPPRLPRPRPRPPDNPRP | 0.0807
RRIRMRPPRLPRPRPRPIPIPRP | 0.138
RRIRFRPPRLPRPRPRPKMVPRP | -0.0413
RRIRNRPPRLPRPRPRPYRNPRP | -0.0239
RRIRVRPPRLPRPRPRPIMIPRP | -1.08
RRIRMRPPRLPRPRPRPHRHPRP | -0.344
RRIRSRPPRLPRPRPRPTFTPRP | -0.269
RRIRIRPPRLPRPRPRPQKQPRP | -0.128
RRIRVRPPRLPRPRPRPGRDPRP | 0.175
RRIRRRPPRLPRPRPRPYRAPRP | -0.47
RRIRERPPRLPRPRPRPKSCPRP | -0.00876
RRIRNRPPRLPRPRPRPYWDPRP | -0.54
RRIRDRPPRLPRPRPRPDKWPRP | -0.0651
RRIRWRPPRLPRPRPRPHKPPRP | -0.119
RRIRVRPPRLPRPRPRPYTKPRP | -0.868
RRIRVRPPRLPRPRPRPWITPRP | -1.08
RRIRGRPPRLPRPRPRPLYAPRP | 0.64
